- Target: MRG15 MRG M273A (human) (UniProt Q9UBU8)
- Experimental protocol: ITC
Experimental endpoint: Kd (nM)

INSERT INTO results (binder, experimental_endpoint, result_unit, recorded_value) VALUES
  ('DYVQPQLRRPFELLIAAAMERNPTQFQLPNELTCTTALPGSS (domain or fragment) [Pf1 MBD (MRG-binding domain, residues 200–241)]', 'Kd', 'nM', 96);
